B1: RSPH3 (parent)
chain: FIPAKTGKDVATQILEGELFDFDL

# Variants of: B1
# Protocol Details: protein stability index of a GFP-peptide fusion (GPS, HEK-293T) (PSI 1-6); higher = more stable;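 further: lentivirally expressed fusions sorted by FACS into six bins by GFP to DsRed ratio, PSI derived from sequencing read proportions per bin multiplied by bin number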
# Particulars: c terminus: a fixed tail appended
Assign protein stability index to each entry below.
Numbers only.

The following variants have reported results that may help.
1. L24E = 2.78
2. G7Y = 1.88
3. F20Q = 2.44

// for each variant below, give its protein stability index
1. I2P
2. A4D

a:
1. 3.04
2. 2.25

# batch size: 6; output protein stability index per entry
1. A11H
2. T12F
3. K5P
4. F20G
5. D9S
6. V10G

a:
1.8
2.73
2.22
1.84
1.82
1.98

// batch mode: one protein stability index value per listed entry
1. G7E
2. V10C
3. F1G
4. D23I
5. E18H
6. F20D
7. G7M
8. I2T

a:
1: 2.08; 2: 1.67; 3: 4.84; 4: 1.24; 5: 2; 6: 2.92; 7: 1.43; 8: 2.85

For every item in the list below, what is its measured protein stability index?
1. E18M
2. L24N
3. E16V

a:
1: 2.73; 2: 2.43; 3: 2.04
